system: Saccharomyces cerevisiae; experiment: protein stability index of tFT-peptide fusion (C-terminal peptide) (PSI (0-1 scale)); higher = more stable (slower turnover); conditions: genetic background: wild type; temperature: 30 C;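 further: PSI is a weighted mean of sequencing reads over stability bins, variants kept only with over 10 reads, mCherry proximal and sfGFP distal, peptide attached via GGGS linker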
// label = Satisfied if protein stability index is not less than 0.7, otherwise Not satisfied

Sequence Content | Group Label
VFGPRSIARGAI | Satisfied
TGEVPPPRCEGE | Not satisfied
REVGSTILAVVH | Not satisfied
QTAAGLKPMSNR | Satisfied
GISASLRRMTRR | Not satisfied
KKKQPKKNQNPT | Satisfied
EWPVGLLREGLG | Not satisfied
PGPSPSPPLPRF | Satisfied
PSNSRPRASPAC | Not satisfied
SPGARRRGGAGR | Not satisfied
GNPGRTAHILQL | Not satisfied
KRKREKKEKADA | Not satisfied
KKQKKHKKEKEK | Not satisfied
NVLIISEQNHEP | Satisfied
SPPPALPPSSPS | Not satisfied
CLYLLFGLLHVG | Not satisfied
QGVGSHIPCGTP | Not satisfied
FCVFVGSSLVGF | Not satisfied
LWRRSLLLLRCC | Not satisfied
VPLRLSTVSFGP | Satisfied
WLGGGGGMQGVR | Not satisfied
GGSGGLGEQGHR | Satisfied
FSSSMFPPPLFV | Not satisfied
GAARGWLPGAGW | Satisfied
DVFLFPGVYFRM | Not satisfied
DRGGDVGRCAGF | Not satisfied
SCHEARWEVVMW | Satisfied
GCGAGEVWGVGG | Not satisfied
ERKNRKIRREKK | Satisfied
PPLGPRARPPPR | Satisfied
CCSGWSVRLLCV | Not satisfied
RKKGGNSKKGKN | Satisfied
VGSLCSRLGRRS | Satisfied
AWVLISNRRRIM | Not satisfied
SWVGHGIPPWHM | Satisfied
LRDIEEIHRRGA | Satisfied
FLLELRFTCSYS | Not satisfied
RVCSGYSRLRFA | Not satisfied
FFVEFFLLCFCS | Not satisfied
QVKKKKQNDAKN | Not satisfied
YRRASGGTVEDM | Satisfied
LCVAFWLGLPTT | Not satisfied
RDQMDNILQRFR | Not satisfied
EVEKKKKKKNNK | Not satisfied
